Items are presented alongside their recorded IC50.
- TEST TARGET: Neutrophil elastase (Homo sapiens, UniProt P08246)
- ASSAY METHOD TEXT: Inhibitory activity against human leukocyte elastase at 10e-6 M
RECORDED METRIC: IC50 (µM)

>>> readout_value("CC(C)(C)C(=O)Oc1coc(COC(c2ccccc2)(c2ccccc2)c2ccccc2)cc1=O")
1
>>> readout_value("Cc1cc(C)c(C(=O)OCc2cc(=O)c(OC(=O)C(C)(C)C)co2)c(C)c1")
8.4
>>> readout_value("CC(C)(C)C(=O)Oc1ccccc1C(=O)OCc1cc(=O)c(OC(=O)C(C)(C)C)co1")
5.4
>>> readout_value("CCCCCCC/C=C/CCCCCCCCC(=O)Oc1coc(COC(=O)CCCCCCC/C=C/CCCCCCCC)cc1=O")
6.1
>>> readout_value("CC(C)(C)C(=O)Oc1ccc(C(OC(=O)CCC(=O)O)c2ccc(OC(=O)C(C)(C)C)cc2)cc1")
3
>>> readout_value("CC(CO)Cc1cc(C(=O)c2ccccc2)ccc1OC(=O)C(C)(C)C (centres undefined)")
1.5
>>> readout_value("CC(C)(C)C(=O)Oc1coc(COC(=O)c2ccc(-c3ccccc3)cc2)cc1=O")
1.9
>>> readout_value("CC(C)(C)C(=O)Oc1ccccc1C(=O)c1ccccc1OC(=O)C(C)(C)C")
8
>>> readout_value("CCC(C)CC(=O)Oc1ccc(C(=O)c2ccc(OC(=O)CC(C)CC)cc2OC(=O)CC(C)CC)c(OC(=O)CC(C)CC)c1 (centres undefined)")
1.5

###

Items are presented alongside their recorded inhibition.
- TEST TARGET: Neutrophil elastase (Homo sapiens) (UniProt P08246)
- Sequence (whole entry): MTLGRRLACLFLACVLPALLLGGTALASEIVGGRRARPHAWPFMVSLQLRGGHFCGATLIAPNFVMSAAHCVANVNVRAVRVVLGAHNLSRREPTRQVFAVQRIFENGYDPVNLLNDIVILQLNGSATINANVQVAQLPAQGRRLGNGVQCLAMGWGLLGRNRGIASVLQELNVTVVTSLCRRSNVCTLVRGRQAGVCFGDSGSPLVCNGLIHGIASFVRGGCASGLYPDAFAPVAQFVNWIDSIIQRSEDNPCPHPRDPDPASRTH
- ASSAY METHOD TEXT: Inhibitory activity against [14C]-Elastin hydrolysis at 2 uM concentration and 2 hr.
RECORDED METRIC: inhibition

>>> readout_value("CC(C)(C)C(=O)Oc1ccc(C(=O)OCc2cc(=O)c(OC(=O)C(C)(C)C)co2)c(OC(=O)C(C)(C)C)c1")
"16%"
>>> readout_value("CCCCCCCC/C=C/CCCCCCCCCCCC(=O)OCc1cc(=O)c(OC(=O)C(C)(C)C)co1")
"33%"
>>> readout_value("CC(C)(C)C(=O)Oc1cc(C(=O)OCc2cc(=O)c(OC(=O)C(C)(C)C)co2)cc(OC(=O)C(C)(C)C)c1OC(=O)C(C)(C)C")
"44%"
>>> readout_value("CC(C)(C)C(=O)Oc1ccc(C(=O)c2ccccc2)c(OC(=O)C(C)(C)C)c1")
"12%"

###

- TEST TARGET: Neutrophil elastase (Homo sapiens, UniProt P08246)
- ASSAY METHOD TEXT: Inhibitory activity against human leukocyte elastase at 10e-7 M
pIC50: −log10 of the molar value.
Items are presented alongside their recorded pIC50.
RECORDED METRIC: pIC50

>>> readout_value("CC(C)(C)C(=O)Oc1ccc(C(=O)c2ccc(OC(=O)C(C)(C)C)cc2)cc1")
6.92
>>> readout_value("CCCCCCCCCCCCC(C)(C)C(=O)OCc1cc(=O)c(OC(=O)C(C)(C)C)co1")
6.22
>>> readout_value("CC(C)(C)C(=O)Oc1ccc(S(=O)(=O)c2ccc(O)cc2)cc1")
5.74
>>> readout_value("CCCCCCCC/C=C/CCCCCCCCCC(=O)OCc1cc(=O)c(OC(=O)C(C)(C)C)co1")
6.68
>>> readout_value("CCCCCCCCCCCCCCCC(=O)OCc1cc(=O)c(OC(=O)C(C)(C)C)co1")
6.96
>>> readout_value("CC(C=O)Cc1cc(C(=O)c2ccccc2)ccc1OC(=O)C(C)(C)C (centres undefined)")
6.10
>>> readout_value("CC(C)(C)C(=O)Oc1ccc(Cc2ccc(OC(=O)C(C)(C)C)cc2)cc1")
6.34
>>> readout_value("CC(C)(C)C(=O)Oc1cc(C(=O)OCc2cc(=O)c(OC(=O)C(C)(C)C)co2)cc(OC(=O)C(C)(C)C)c1OC(=O)C(C)(C)C")
7.00
>>> readout_value("CC(C)(C)C(=O)Oc1ccc(C(=O)OCc2cc(=O)c(OC(=O)C(C)(C)C)co2)cc1")
6.70
>>> readout_value("CC(C)(C)C(=O)Oc1ccc(C(=O)c2ccc(Cl)cc2)cc1")
6.85
>>> readout_value("CCCCCC/C=C/CCCCCCCC(=O)OCc1cc(=O)c(OC(=O)C(C)(C)C)co1")
6.89
>>> readout_value("CCCCCCCC/C=C/CCCCCCCCCCCC(=O)OCc1cc(=O)c(OC(=O)C(C)(C)C)co1")
6.80
>>> readout_value("CCCCCCCCCCCCCCCCCCCC(=O)OCc1cc(=O)c(O)co1")
5.05
>>> readout_value("CCCCCCCCCCCCCCCCCC(=O)OCc1cc(=O)c(OC(=O)C(C)(C)C)co1")
7.00
>>> readout_value("CCCCCCCCCCCCCCCCCCCC(=O)OCc1cc(=O)c(OC(=O)C(C)(C)C)co1")
6.89
>>> readout_value("CC(C)(C)C(=O)Oc1ccc(Oc2ccc(OC(=O)C(C)(C)C)cc2)cc1")
6.35
>>> readout_value("CC(C)(C)C(=O)Oc1ccccc1C(=O)c1ccccc1")
5.00
>>> readout_value("C=C(C)Cc1cc(C(=O)c2ccccc2)ccc1OC(=O)C(C)(C)C")
6.07
>>> readout_value("CCCCCCCC/C=C/CCCCCCCC(=O)OCc1cc(=O)c(OC(=O)C(C)(C)C)co1")
6.52
